- tested system: T1, recombinant His-tagged Der p1 (dust mite, UniProt P08176 99-320, limits assumed)
- T1 construct: Recombinant His-tagged protein made by the applicant; also called Der p1-His; Der pl; not shown: His tag
- T1 sequence (looked up): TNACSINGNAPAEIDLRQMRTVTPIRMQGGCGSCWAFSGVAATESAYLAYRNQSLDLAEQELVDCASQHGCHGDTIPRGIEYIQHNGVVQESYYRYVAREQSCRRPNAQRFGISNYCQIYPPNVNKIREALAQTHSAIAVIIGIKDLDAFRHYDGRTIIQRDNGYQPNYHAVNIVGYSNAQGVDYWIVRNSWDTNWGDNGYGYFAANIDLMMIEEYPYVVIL
- assay info: ELISA, Der p1 on plate, biotinylated peptide at 0.041, duplicate 1
No end group written: not given here.

binder: AVVSFYP (also: biotinylated, site not given here, 7-amino acid peptide from a phage display library) [SDAB22110-2-F1]
OD450, OD450: 0.079
//
binder: YPTWAYR (also: biotinylated, site not given here, 7-amino acid peptide from a phage display library) [SDAB22110-2-C3]
OD450, OD450: 0.058
//
binder: GIHMALM (also: biotinylated, site not given here, 7-amino acid peptide from a phage display library) [SDAB22110-2-B2]
OD450, OD450: 0.07
//
binder: VVAFGIS (also: biotinylated, site not given here, 7-amino acid peptide from a phage display library) [SDAB22110-2-G1]
OD450, OD450: 0.057
//
binder: LTGYGMS (also: biotinylated, site not given here, 7-amino acid peptide from a phage display library) [SDAB22110-2-D9]
OD450, OD450: 0.061
//
binder: HSGPECG (also: biotinylated, site not given here, 7-amino acid peptide from a phage display library) [SDAB22110-2-D3]
OD450, OD450: 0.468
